Listed next: entries and their corresponding IC50.
Test system: RBL-2H3 cells
Test: Inhibition of mast cell degranulation (β-hexosaminidase release)
Type: cell-based
Settings: Rattus norvegicus, IgE-sensitized RBL-2H3 cells, 1 h with compound, antigen (DNP-HSA) 15 min

{"compound": "CCCCCCCCCCCCN(C)CC(O)CS(=O)(=O)O (centres unmarked)", "experimental-system": "RBL-2H3 cells", "IC50 (µM)": 4.1}
{"compound": "CCCCCCCCCCCCCCCCOP(=O)([O-])OCC[N+](C)(C)C [Miltefosine, reference compound]", "experimental-system": "RBL-2H3 cells", "IC50 (µM)": 4.2}

* * *

Test: Pharmacokinetic study after a single oral administration to mice
Type: in vivo
Details: female Balb/c mice, single oral 100 mg/kg; time of last sampling time point; 100 mg/kg

{"compound": "CCCCCCCCCCCCCCCCN(C)CC(O)CS(=O)(=O)O (centres unmarked) [TN-0382.11]", "unit-info": "h", "tlast": 24.0}
{"compound": "CCCCCCCCCCCCCCCCN(C)CC(O)CS(=O)(=O)O (centres unmarked) [2338-CF/30]", "unit-info": "h", "tlast": 48.0}
{"compound": "CCCCCCCCCCCCCCCCN(C)CC(O)CS(=O)(=O)O (centres unmarked) [2208-CF/1]", "unit-info": "h", "tlast": 48.0}
{"compound": "CCCCCCCCCCCCCCCCN(C)CC(O)CS(=O)(=O)O (centres unmarked) [KP-0726.11]", "unit-info": "h", "tlast": 48.0}
{"compound": "CCCCCCCCCCCCCCCCN(C)CC(O)CS(=O)(=O)O (centres unmarked) [KP-0722.11]", "unit-info": "h", "tlast": 24.0}

* * *

Experiment: Pharmacokinetic study after a single oral administration to mice
Assay type: in vivo
Settings: female, Balb/c, mouse, plasma, po, 100 mg/kg, female Balb/c mice, single oral 100 mg/kg; read-out: MRT

{"compound": "CCCCCCCCCCCCCCCCN(C)CC(O)CS(=O)(=O)O (stereo not shown)", "MRT, h": 5.5}

* * *

Listed next: entries and their corresponding MTC (maximum tolerated concentration).
System: RBL-2H3 cells
Test: Maximum tolerated concentration (cytotoxicity by lactate dehydrogenase release)
Assay type: cell-based, Rat
Details: highest concentration not causing cytotoxicity (LDH release), RBL-2H3 cells

{"molecule": "CCCCCCCCCCCCCC[N+](C)(C)CC(CS(=O)(=O)[O-])OC (stereo not drawn) [Compound 1d]", "experimental-system": "RBL-2H3 cells", "MTC (maximum tolerated concentration), µM": 75}
{"molecule": "CCCCCCCCCCCCN(C)CC(O)CS(=O)(=O)O (stereo not drawn) [Compound 1c]", "experimental-system": "RBL-2H3 cells", "MTC (maximum tolerated concentration), µM": 200}
{"molecule": "CCCCCCCCCCCCCCCCN(C)CC(O)CS(=O)(=O)O (stereo not drawn) [Compound 1a]", "experimental-system": "RBL-2H3 cells", "MTC (maximum tolerated concentration), µM": 75}
{"molecule": "CCCCCCCCCCCCCCCCOP(=O)([O-])OCC[N+](C)(C)C [Miltefosine, reference compound]", "experimental-system": "RBL-2H3 cells", "MTC (maximum tolerated concentration), µM": 25}
{"molecule": "CCCCCCCCCCCCCC[N+](C)(C)CC(CS(=O)(=O)[O-])OC(C)=O (stereo not drawn) [Compound 1e]", "experimental-system": "RBL-2H3 cells", "MTC (maximum tolerated concentration), µM": 100}
{"molecule": "CCCCCCCCCCCCCCN(C)CC(O)CS(=O)(=O)O (stereo not drawn) [Compound 1b]", "experimental-system": "RBL-2H3 cells", "MTC (maximum tolerated concentration), µM": 100}
